Biological target: D(2) dopamine receptor (Homo sapiens, UniProt P14416)
Assay: biochemical
Assay type: cell-based
Sequence (P14416 whole entry): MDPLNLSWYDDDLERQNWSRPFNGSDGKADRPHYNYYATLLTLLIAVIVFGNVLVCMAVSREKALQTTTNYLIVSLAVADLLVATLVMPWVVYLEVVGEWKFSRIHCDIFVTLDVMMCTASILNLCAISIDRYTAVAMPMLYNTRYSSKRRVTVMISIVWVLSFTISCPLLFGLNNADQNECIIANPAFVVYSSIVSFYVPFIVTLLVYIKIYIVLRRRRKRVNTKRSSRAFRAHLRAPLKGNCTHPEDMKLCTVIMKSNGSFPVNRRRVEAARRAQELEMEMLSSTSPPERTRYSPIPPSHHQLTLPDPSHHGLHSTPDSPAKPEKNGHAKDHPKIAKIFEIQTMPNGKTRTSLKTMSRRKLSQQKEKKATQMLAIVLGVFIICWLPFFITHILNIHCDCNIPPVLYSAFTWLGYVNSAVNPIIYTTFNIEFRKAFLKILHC
Description: Displacement of [3H]spiperone from human D2LR expressed in CHO cell membranes
pKi: −log10 of the molar value.
Decision: pKi compared against 8; not below it gives Fulfilled, below it gives Not fulfilled.

Sample answers from the record:
molecule | category label
CN1CCCN(c2ccc(O)c3c2OCC(=O)N3)CC1 | Not fulfilled
O/N=C/c1cnn2ccc(OCCCCN3CCN(c4ccc(O)c5c4OCCO5)CC3)cc12 (stereo in doubt; 9e) | Not fulfilled
CCCN1CCN(c2ccc(O)c3[nH]c(=O)ccc23)CC1 | Not fulfilled
O=C1COc2c(N3CCNCC3)ccc(O)c2N1 | Not fulfilled
O=c1ccc2c(N3CCN(CCCCOc4ccn5ncc(/C=N/O)c5c4)CC3)ccc(O)c2[nH]1 (stereo in doubt; 9a) | Fulfilled
CCCN1CCCN(c2ccc(O)c3c2OCC(=O)N3)CC1 | Not fulfilled
O=Cc1cnn2ccc(OCCCCN3CCN(c4ccc(O)c5c4OCCO5)CC3)cc12 | Fulfilled
O=C1COc2c(N3CCN(CCCCOc4ccn5ncc(/C=N/O)c5c4)CC3)ccc(O)c2N1 (stereo in doubt; 9d) | Fulfilled
O=C1COc2c(N3CCN(CCCCOc4ccn5ncc(/C=N/O)c5c4)CC3)ccc(O)c2N1 (stereo in doubt; 9c) | Fulfilled

We next turn to a different molecule, shown below.
Check this molecule for pKi at or above 8: O=Cc1cnn2ccc(OCCCCN3CCN(c4ccc(O)c5[nH]c(=O)ccc45)CC3)cc12 Fulfilled

----------
Assay: Displacement of [3H]prazosin from […] receptor in porcine cerebral cortex homogenates
Format: tissue-based, Sus scrofa
Let's look at some molecules and their measured Ki.
Output spec: scalar in µM, unitless text.

molecule | unit abbreviation | measurement
O=c1ccc2c(N3CCNCC3)ccc(O)c2[nH]1 | µM | 12
O=C1COc2c(N3CCN(CCCCOc4ccn5ncc(/C=N/O)c5c4)CC3)ccc(O)c2N1 (stereo in doubt; 9c) | µM | 0.013
CN1CCN(c2ccc(O)c3c2OCC(=O)N3)CC1 | µM | 1.5
O=Cc1cnn2ccc(OCCCCN3CCN(c4ccc(O)c5[nH]c(=O)ccc45)CC3)cc12 | µM | 0.049

Would you mind telling me what Ki value was observed for CN1CCN(c2ccc(O)c3[nH]c(=O)ccc23)CC1 ? 1.5

----------
Here's what we have: pKi numbers for D(3) dopamine receptor (Homo sapiens, UniProt P35462).
In textbook form, pKi equals minus log to base ten of the concentration in mol/L.

compound | pKi
O=C1COc2c(N3CCNCC3)ccc(O)c2N1 | 6.80

Return pKi measured with D(3) dopamine receptor (Homo sapiens, UniProt P35462) given this compound: CN1CCN(c2ccc(O)c3[nH]c(=O)ccc23)CC1 6.42

Requested read-out pKi, target or system D(3) dopamine receptor (Homo sapiens, UniProt P35462), entry CCCN1CCN(c2ccc(O)c3c2OCC(=O)N3)CC1 8.23

Which pKi is reported with D(3) dopamine receptor (Homo sapiens, UniProt P35462) for this entry: O/N=C/c1cnn2ccc(OCCCCN3CCN(c4ccc(O)c5c4OCCO5)CC3)cc12 (stereo in doubt; 9e) ? 7.52

Kindly state the measured pKi obtained for CN1CCCN(c2ccc(O)c3c2OCC(=O)N3)CC1 with D(3) dopamine receptor (Homo sapiens, UniProt P35462). 7.38

Could you share what pKi was measured for CN1CCN(c2ccc(O)c3c2OCCO3)CC1 , tested on D(3) dopamine receptor (Homo sapiens, UniProt P35462)? 6.10

Query for D(3) dopamine receptor (Homo sapiens, UniProt P35462): what pKi does the record show for CN1CCN(c2ccc(O)c3c2OCC(=O)N3)CC1 ? 7.32

Form: Entry = O=C1COc2c(N3CCN(CCCCOc4ccn5ncc(/C=N/O)c5c4)CC3)ccc(O)c2N1 (stereo in doubt; 9d) | System = D(3) dopamine receptor (Homo sapiens, UniProt P35462) | pKi = ____ 9.41

Record lookup: for D(3) dopamine receptor (Homo sapiens, UniProt P35462), what pKi belongs to O=c1ccc2c(N3CCNCC3)ccc(O)c2[nH]1 ? 5.77

Item: O=C1COc2c(N3CCCNCC3)ccc(O)c2N1 Test system: D(3) dopamine receptor (Homo sapiens, UniProt P35462) Read-out: pKi Value: ? 6.29

# query: pKi | item CCCN1CCCN(c2ccc(O)c3c2OCC(=O)N3)CC1 | system: D(3) dopamine receptor (Homo sapiens, UniProt P35462) 8.43

----------
Quick reference for pKi among some compounds
Target: D(4) dopamine receptor (Homo sapiens, UniProt P21917)
Sequence (P21917 whole entry): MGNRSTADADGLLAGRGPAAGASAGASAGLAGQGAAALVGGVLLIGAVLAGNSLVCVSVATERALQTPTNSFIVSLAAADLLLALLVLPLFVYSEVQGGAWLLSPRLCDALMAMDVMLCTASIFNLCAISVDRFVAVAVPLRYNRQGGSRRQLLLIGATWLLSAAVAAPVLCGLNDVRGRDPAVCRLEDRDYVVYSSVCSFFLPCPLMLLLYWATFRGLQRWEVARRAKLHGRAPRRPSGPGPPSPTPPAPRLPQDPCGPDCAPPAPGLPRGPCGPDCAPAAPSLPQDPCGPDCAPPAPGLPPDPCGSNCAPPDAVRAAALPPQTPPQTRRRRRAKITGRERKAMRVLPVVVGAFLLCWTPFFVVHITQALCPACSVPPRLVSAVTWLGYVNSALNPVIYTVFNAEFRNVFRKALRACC
Experiment: biochemical
Format: cell-based
Description: Displacement of [3H]spiperone from human D4R expressed in CHO cell membranes
# pKi = -log10(concentration in molar units)

Example entries and their recorded answers appear below.
compound | measurement
CCCN1CCN(c2ccc(O)c3[nH]c(=O)ccc23)CC1 | 5.12
CCCN1CCN(c2ccc(O)c3c2OCC(=O)N3)CC1 | 6.06
O/N=C/c1cnn2ccc(OCCCCN3CCN(c4ccc(O)c5c4OCCO5)CC3)cc12 (stereo in doubt; 9e) | 6.85

Record request: pKi value, item O=Cc1cnn2ccc(OCCCCN3CCN(c4ccc(O)c5[nH]c(=O)ccc45)CC3)cc12 7.39

I am curious: what pKi value has been reported for O/N=C/c1cnn2ccc(OCCCCN3CCN(c4ccc(O)c5c4OCCO5)CC3)cc12 (stereo in doubt; 9f) ? 7.21

If you can, please state the reported pKi value of O=C1COc2c(N3CCN(CCCCOc4ccn5ncc(/C=N/O)c5c4)CC3)ccc(O)c2N1 (stereo in doubt; 9c) . 8.64

Data request, read-out pKi, for O=c1ccc2c(N3CCN(CCCCOc4ccn5ncc(/C=N/O)c5c4)CC3)ccc(O)c2[nH]1 (stereo in doubt; 9b) 7.51

I have this compound here, CN1CCCN(c2ccc(O)c3c2OCC(=O)N3)CC1 , and I need its recorded pKi. 5.31

----------
Form field: pKi (one value per entry).
Molecular target: UniProt P14416
Experiment: biochemical
Format: cell-based
Description: Displacement of [3H]spiperone from human D2SR expressed in CHO cell membranes
Notebook: values listed as pKi are -log10 of the concentration (mol/L).

molecule | pKi
O=C1COc2c(N3CCNCC3)ccc(O)c2N1 | 5.74

Turning now to a further molecule:
# returns recorded pKi (system: UniProt P14416) for Oc1ccc(N2CCNCC2)c2c1OCCO2 5.22

----------
Target: D(2) dopamine receptor (Homo sapiens)
Type: ADME, cell-based
Conditions: hek293
Sequence (P14416 whole entry, looked up, change not shown): as the sequence (P14416 whole entry) above
Description: Agonist activity at human D2SR expressed in HEK293 cell membranes co-expressing PTX insensitive variant of Galphao1 incubated for 30 mins by [35S]GTP-gammaS binding assay
Reported EC50 values follow for various compounds
Give a bare numeral; the unit nM is implied.

compound | assay target | quantity | measurement
O=c1ccc2c(N3CCN(CCCCOc4ccn5ncc(/C=N/O)c5c4)CC3)ccc(O)c2[nH]1 (stereo in doubt; 9a) | D(2) dopamine receptor (Homo sapiens) | EC50 | 58

Requested read-out: EC50. Entry: CCCN1CCN(c2ccc(O)c3c2OCC(=O)N3)CC1 980

Recorded EC50 for CCCN(CCC)CCc1cccc2c1CC(=O)N2 , please? 330

Given O=c1ccc2c(N3CCN(CCCCOc4ccn5ncc(/C=N/O)c5c4)CC3)ccc(O)c2[nH]1 (stereo in doubt; 9b) , state its recorded EC50. 55

Record request: EC50 value, item O=C1COc2c(N3CCN(CCCCOc4ccn5ncc(/C=N/O)c5c4)CC3)ccc(O)c2N1 (stereo in doubt; 9c) 260

----------
Assay: Displacement of [3H]prazosin from […] receptor in porcine cerebral cortex homogenates
Format: tissue-based, Sus scrofa
Could you mark each record 1 (yes) if its Ki falls strictly under 200 nM, and 0 (no) if it equals or exceeds it?

Answered examples (5):
compound | category label
O=c1ccc2c(N3CCN(CCCCOc4ccn5ncc(/C=N/O)c5c4)CC3)ccc(O)c2[nH]1 (stereo in doubt; 9a) | 1 (yes)
O=Cc1cnn2ccc(OCCCCN3CCN(c4ccc(O)c5c4OCC(=O)N5)CC3)cc12 | 1 (yes)
CCCN1CCN(c2ccc(O)c3c2OCC(=O)N3)CC1 | 1 (yes)
O=C1COc2c(N3CCCNCC3)ccc(O)c2N1 | 0 (no)
O=Cc1cnn2ccc(OCCCCN3CCN(c4ccc(O)c5c4OCCO5)CC3)cc12 | 1 (yes)

Find out if reported Ki for O=C1COc2c(N3CCNCC3)ccc(O)c2N1 is less than 200 nM 0 (no)

Consider CCCN1CCN(c2ccc(O)c3c2OCCO3)CC1 . Does its Ki lie strictly below 200 nM? 0 (no)

Please determine if O/N=C/c1cnn2ccc(OCCCCN3CCN(c4ccc(O)c5c4OCCO5)CC3)cc12 (stereo in doubt; 9f) is below 200 nM in terms of Ki. 1 (yes)

Just wondering, is Ki of O=C1COc2c(N3CCN(CCCCOc4ccn5ncc(/C=N/O)c5c4)CC3)ccc(O)c2N1 (stereo in doubt; 9d) below 200 nM? 1 (yes)

Does CN1CCCN(c2ccc(O)c3c2OCC(=O)N3)CC1 have Ki strictly under 200 nM? 0 (no)

----------
Molecular target: D(2) dopamine receptor (Homo sapiens)
Type: cell-based, HEK293
Description: Agonist activity at human D2SR expressed in HEK293 cells incubated for 5 hrs by beta-Arrestin 2 recruitment assay
quantity: pEC50
Friendly reminder that pEC50 comes from taking -log10 of the concentration in mol/L.

Field: example entries. Status: answers known.
compound | pEC50
O=c1ccc2c(N3CCN(CCCCOc4ccn5ncc(/C=N/O)c5c4)CC3)ccc(O)c2[nH]1 (stereo in doubt; 9b) | 7.34
O=C1COc2c(N3CCN(CCCCOc4ccn5ncc(/C=N/O)c5c4)CC3)ccc(O)c2N1 (stereo in doubt; 9c) | 6.96
CN1CCN(c2ccc(O)c3c2OCC(=O)N3)CC1 | 6.52

Attention now turns to another entry.
Look up pEC50: O/N=C/c1cnn2ccc(OCCCCN3CCN(c4ccc(O)c5c4OCCO5)CC3)cc12 (stereo in doubt; 9e) 6.77
